Every entry's value here was drawn from the Kinase Knowledgebase extract (Sharma et al. 2016).

experimental-system: PIK3CD (Human) (UniProt O00329)
Sequence (O00329 whole entry, looked up): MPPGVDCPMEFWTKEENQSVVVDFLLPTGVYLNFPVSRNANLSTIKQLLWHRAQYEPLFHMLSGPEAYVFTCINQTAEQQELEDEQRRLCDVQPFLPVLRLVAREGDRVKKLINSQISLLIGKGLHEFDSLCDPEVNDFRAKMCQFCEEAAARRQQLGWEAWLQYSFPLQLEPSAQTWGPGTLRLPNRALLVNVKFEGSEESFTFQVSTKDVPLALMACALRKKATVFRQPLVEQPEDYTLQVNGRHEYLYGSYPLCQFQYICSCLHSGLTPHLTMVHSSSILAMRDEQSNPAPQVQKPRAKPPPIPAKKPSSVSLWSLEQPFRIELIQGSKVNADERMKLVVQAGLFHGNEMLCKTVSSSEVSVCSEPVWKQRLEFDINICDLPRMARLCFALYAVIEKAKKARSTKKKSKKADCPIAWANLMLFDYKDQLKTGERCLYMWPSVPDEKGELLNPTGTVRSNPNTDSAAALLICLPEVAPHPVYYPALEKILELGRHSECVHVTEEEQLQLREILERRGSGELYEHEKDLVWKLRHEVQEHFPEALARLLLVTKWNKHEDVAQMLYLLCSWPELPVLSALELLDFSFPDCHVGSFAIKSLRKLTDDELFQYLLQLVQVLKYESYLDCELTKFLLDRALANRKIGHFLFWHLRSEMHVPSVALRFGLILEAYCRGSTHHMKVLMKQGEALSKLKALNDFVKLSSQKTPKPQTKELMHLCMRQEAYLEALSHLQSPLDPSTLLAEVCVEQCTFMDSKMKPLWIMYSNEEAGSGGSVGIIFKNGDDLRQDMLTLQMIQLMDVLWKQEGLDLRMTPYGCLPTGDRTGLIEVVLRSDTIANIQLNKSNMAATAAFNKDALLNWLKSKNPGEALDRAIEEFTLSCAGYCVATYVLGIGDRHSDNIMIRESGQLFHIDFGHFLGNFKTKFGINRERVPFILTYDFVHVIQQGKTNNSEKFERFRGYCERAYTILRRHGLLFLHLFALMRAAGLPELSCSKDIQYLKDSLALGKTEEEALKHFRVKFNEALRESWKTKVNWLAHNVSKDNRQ
Catalogue of IC50 readings, one per entry.

Examples with answers:
# compound-structure-string, metric, result
rows = [
    ("Cc1cccc2cc([C@H](C)Nc3ncnc4[nH]nc(Cl)c34)n(-c3ccccc3)c(=O)c12", "IC50", "< 100 nM"),
    ("Nc1ncnc2c1c(-c1cccc(O)c1)nn2Cc1cc2cccc(F)c2c(=O)n1-c1ccccc1F", "IC50", "100 to 1000 nM"),
]

Prompt: For the compound `Cc1cccc2cc([C@H](C)Nc3ncnc4[nH]cc(F)c34)n(-c3ccccc3)c(=O)c12` , report IC50.
Response: < 100 nM

Prompt: For the compound `Cc1cccc2cc([C@H](C)Nc3ncnc4[nH]c(Cl)nc34)n(-c3ccccc3)c(=O)c12` , report IC50.
Response: > 10000 nM

Prompt: For the compound `Cc1ccccc1-n1c(Cn2nc(C(=O)O)c3c(N)ncnc32)cc2cccc(C)c2c1=O` , report IC50.
Response: 100 to 1000 nM

Prompt: For the compound `Cc1cccnc1-n1c(Cn2nc(Cl)c3c(N)ncnc32)cc2cccc(C)c2c1=O` , report IC50.
Response: 100 to 1000 nM

Prompt: For the compound `Cc1cccc2cc([C@H](C)Nc3ncnc4[nH]cc(C#N)c34)n(-c3ccccc3)c(=O)c12` , report IC50.
Response: < 100 nM

###

Listed here: compounds with reported IC50 for PIK3CD (Human).

# compound-structure-string, experimental-system, IC50
measured = [
    ("Cc1ccccc1-n1c(Cn2nc(C#CC3CC3)c3c(N)ncnc32)cc2cccc(C)c2c1=O", "PIK3CD (Human)", "100 to 1000 nM"),
    ("Cc1cccc2cc(Cn3nc(-c4ccc5oc(N)nc5c4)c4c(N)ncnc43)n(-c3ccccc3)c(=O)c12", "PIK3CD (Human)", "< 100 nM"),
]

// switching to the query compound
Prompt: Quote IC50 with test system PIK3CD (Human) for `Cc1cccc2cc([C@H](C)Nc3ncnc4[nH]nc(C(N)=O)c34)n(C3CC3)c(=O)c12`
Response: < 100 nM

###

Listed here: compounds with reported IC50 for PIK3CD (Human).

# compound, metric, result
records = [
    ("CCc1nn(Cc2cc3cccc(C)c3c(=O)n2-c2ccccc2)c2ncnc(N)c12", "IC50", "< 100 nM"),
    ("Cc1cccc2cc(Cn3nc(C(N)=O)c4c(N)ncnc43)n(-c3ccccc3)c(=O)c12", "IC50", "100 to 1000 nM"),
    ("Cc1cccnc1-n1c(Cn2nc(C#C[C@@H](C)O)c3c(N)ncnc32)cc2cccc(C)c2c1=O", "IC50", "100 to 1000 nM"),
    ("Cc1cccc2cc(C(C)Nc3ncnc4[nH]cnc34)n(-c3cc(F)cc(F)c3)c(=O)c12 (stereo not given)", "IC50", "< 100 nM"),
    ("Cc1ccccc1-n1c(Cn2nc(-c3ccc4nc(N)[nH]c4c3)c3c(N)ncnc32)cc2cccc(C)c2c1=O", "IC50", "< 100 nM"),
]

Prompt: Quote IC50 with test system PIK3CD (Human) for `Cc1cccc2cc([C@@H](C)Nc3ncnc4[nH]cnc34)n(C3CC3)c(=O)c12`
Response: > 10000 nM

Prompt: Quote IC50 with test system PIK3CD (Human) for `Cc1ccccc1-n1c(Cn2nc(CO)c3c(N)ncnc32)cc2cccc(C)c2c1=O`
Response: 100 to 1000 nM

Prompt: Quote IC50 with test system PIK3CD (Human) for `Cc1ccccc1-n1c(Cn2nc(-c3ccc4oc(N)nc4c3)c3c(N)ncnc32)cc2cccc(C)c2c1=O`
Response: < 100 nM

###

Listed here: molecules with reported IC50 for PIK3CD (Human) (UniProt O00329).

Examples with answers:
# molecule, metric, result
measured = [
    ("Cc1ccccc1-n1c(Cn2nc(-c3ccc(O)cc3)c3c(N)ncnc32)cc2cccc(C)c2c1=O", "IC50", "100 to 1000 nM"),
    ("CCC(Nc1ncnc2[nH]cnc12)c1cc2cccc(C)c2c(=O)n1-c1ccc(F)cc1 (configuration not stated)", "IC50", "< 100 nM"),
    ("C=Cc1nn(Cc2cc3cccc(C)c3c(=O)n2-c2ccccc2)c2ncnc(N)c12", "IC50", "< 100 nM"),
    ("Cc1cccc2cc(Cn3nc(-c4ccc(O)c(Cl)c4)c4c(N)ncnc43)n(-c3ccccc3F)c(=O)c12", "IC50", "100 to 1000 nM"),
    ("Cc1cccc2cc([C@H](C)Nc3ncnc4[nH]cc(Cl)c34)n(-c3ccccc3)c(=O)c12", "IC50", "< 100 nM"),
    ("Cc1ccccc1-n1c(Cn2nc(I)c3c(N)ncnc32)cc2ccccc2c1=O", "IC50", "100 to 1000 nM"),
]

// switching to the query molecule
Prompt: Quote IC50 with test system PIK3CD (Human) (UniProt O00329) for Cc1cccc2cc(C(C)Nc3nc(N)nc4[nH]cnc34)n(-c3ccccc3)c(=O)c12 (configuration not stated)
Response: < 100 nM
